System: HOP-62 NSCLC
Assay: NCI tumour cell line growth inhibition, 48 h
Would you mind telling me the reported GI50 of each entry?

Some compounds with known GI50 results, for comparison:
compound | resultType | readoutValue
O=C1CCCN1CC#CCN1CCCC1 | GI50 | > 100 µM
NC(=O)c1ccc(C2C3=C(CCCC3=O)OC3=C2C(=O)c2ccccc2C3=O)cc1 (stereo not given) | GI50 | 1.35 µM
COC(=O)CCCCCN=Cc1c(O)c(O)c(C(C)C)c2cc(C)c(-c3c(C)cc4c(C(C)C)c(O)c(O)c(C=NCCCCCC(=O)OC)c4c3O)c(O)c12 | GI50 | 1.35 µM
COC(=O)C1=C(C(=O)OC)SC(=C(Cl)C(=S)Sc2ccccc2N)S1 | GI50 | 13.5 µM
COc1ccc(Cl)cc1Nc1nc(C(F)(F)F)ccc1C(=O)N/N=C/c1cc(OC)c(OC)c(OC)c1 | GI50 | 5.17 µM
C[C@]12CC[C@@H]3c4ccc(O)cc4C(O)C[C@H]3[C@@H]1CCC2=O (stereo not given in full) | GI50 | > 100 µM
FCc1ncc(-c2ccc(C(F)(F)F)cc2)c(NC2CCCCCC2)n1 | GI50 | > 10 µM
Cc1cc(-c2nnc3n2CCCCC3)c(C)n1-c1ccc(Cl)c(Cl)c1 | GI50 | 16.8 µM

Record GI50 for all entries; do not skip any.
1. Cc1cc(N/N=C/c2nc(-c3ccc(Cl)cc3)oc2C)c2cc(Cl)ccc2n1
2. O=[N+]([O-])c1ccc2c(c1)[O][Sn]([I])([I])[O]2

Outgoing:
1.92 µM
> 100 µM

Where do the numbers come from? From PubChem BioAssay (NCI).
